Tested on: CASOB (Sicklepod)
measurementProtocol: Postemergence herbicidal evaluation
Assay type: in vivo, Cassia obtusifolia
details: Rate 0.0158 kg/ha
measureName: Postemergence herbicidal rating CASOB
Form field (numeric): enter value without unit.

Retrieve Postemergence herbicidal rating CASOB measured for CCOC(=O)CN1C(=O)C(CC(=O)OCc2ccccc2)OC1=Nc1cc(-n2c(=O)cc(C(F)(F)F)n(C)c2=O)c(F)cc1Cl (centres unmarked) and print it.
0.0

Retrieve Postemergence herbicidal rating CASOB measured for CCOC(=O)CN1C(=O)C(CC(=O)NC)SC1=Nc1cc(-n2c(=O)cc(C(F)(F)F)n(C)c2=O)c(F)cc1Cl (centres unmarked) and print it.
2.0

Retrieve Postemergence herbicidal rating CASOB measured for Cn1c(C(F)(F)F)cc(=O)n(-c2cc(N=C3SCC(=O)N3[C@@H](Cc3ccccc3)C(=O)O)c(Cl)cc2F)c1=O and print it.
4.0

Retrieve Postemergence herbicidal rating CASOB measured for C=CCN1C(=O)C(CC(=O)O)SC1=Nc1cc(-n2c(=O)cc(C(F)(F)F)n(C)c2=O)c(F)cc1Cl (centres unmarked) and print it.
1.0

Retrieve Postemergence herbicidal rating CASOB measured for Cn1c(C(F)(F)F)cc(=O)n(-c2cc(N=C3SCC(=O)N3CCC(=O)O)c(Cl)cc2F)c1=O [Compound 30] and print it.
0.0

* * *

Give ORYSAT herbicidal rating for every item shown.
Test system: ORYSAT (Rice, Tebonnet)
measurementProtocol: Postemergence herbicidal evaluation
Type: in vivo, Oryza sativa, (L.) Tebonnet
details: postemergence, rate 0.0158 kg/ha
Protocol: In the tests, seedling plants are grown in jiffy flats for about two weeks. The test compounds are dispersed in 50/50 acetone/water mixtures containing 0.5% TWEEN®20, a polyoxyethylene sorbitan monolaurate surfactant of Atlas Chemical Industries, in sufficient quantities to provide the equivalent of about 0.0156 kg to 0.500 kg per hectare of active compound when applied to the plants through a spray nozzle operating at 40 psi for a predetermined time. […]
Form field (numeric): enter value without unit.

Retrieve ORYSAT herbicidal rating measured for COC(=O)[C@H](Cc1ccccc1)N1C(=O)CS/C1=N/c1cc(-n2c(=O)cc(C(F)(F)F)n(C)c2=O)c(F)cc1Cl [Compound 72] and print it.
3.5

Retrieve ORYSAT herbicidal rating measured for CCOC(=O)C(c1ccc(Cl)cc1)N1C(=O)CSC1=Nc1cc(-n2c(=O)cc(C(F)(F)F)n(C)c2=O)c(F)cc1Cl (racemic) [Compound 79] and print it.
2.5

Retrieve ORYSAT herbicidal rating measured for C=CCN1C(=O)C(CC(=O)OC(C)C(=O)OCC)SC1=Nc1cc(-n2c(=O)ccn(C)c2=O)c(F)cc1Cl (stereo not drawn) [Compound 94] and print it.
2.0

* * *

Give Preemergence herbicidal rating CHEAL for every item shown.
Tested on: CHEAL (Lambsquarters, Common)
measurementProtocol: Preemergence herbicidal evaluation
Format: in vivo, Chenopodium album
details: rate 0.5000 kg/ha; rated 4-5 weeks after treatment

Retrieve Preemergence herbicidal rating CHEAL measured for CCOC(=O)CN1C(=O)C(CC(=O)OC(C)C)SC1=Nc1cc(-n2c(=O)cc(C(F)(F)F)n(C)c2=O)c(F)cc1Cl (stereo not shown) and print it.
9.0

Retrieve Preemergence herbicidal rating CHEAL measured for CCOC(=O)CN1C(=O)C(Cl)SC1=Nc1cc(-n2c(=O)cc(C(F)(F)F)n(C)c2=O)c(F)cc1Cl (stereo not shown) and print it.
9.0

Retrieve Preemergence herbicidal rating CHEAL measured for C#CCOC(=O)CC1SC(=Nc2cc(-n3c(=O)cc(C(F)(F)F)n(C)c3=O)c(F)cc2Cl)N(CC(=O)OCC)C1=O (stereo not shown) and print it.
9.0

Retrieve Preemergence herbicidal rating CHEAL measured for CCOC(=O)CCN1C(=O)CSC1=Nc1cc(-n2c(=O)cc(C(F)(F)F)n(C)c2=O)c(Cl)cc1Cl and print it.
9.0

* * *

Tested on: CYPIR (Rice Flatsedge)
measurementProtocol: Preemergence weed control under flooded paddy conditions
Assay type: in vivo, Cyperus iria
details: 0.0313 kg/ha, rated 3-4 weeks after treatment
measureName: herbicidal effect rating, CYPIR
Form field (numeric): enter value without unit.

Retrieve herbicidal effect rating, CYPIR measured for CCOC(=O)CN1C(=O)CSC1=Nc1cc(N2C(=O)CC(C(F)(F)F)CC2=O)c(F)cc1Cl and print it.
0.0

Retrieve herbicidal effect rating, CYPIR measured for CCOC(=O)CN1C(=O)C(SC)SC1=Nc1cc(-n2c(=O)cc(C(F)(F)F)n(C)c2=O)c(F)cc1Cl (stereo not shown) and print it.
3.0

Retrieve herbicidal effect rating, CYPIR measured for Cn1c(C(F)(F)F)cc(=O)n(-c2cc(N=C3SCC(=O)N3Cc3ccccc3Cl)c(Cl)cc2F)c1=O and print it.
0.0

Retrieve herbicidal effect rating, CYPIR measured for C#CC(C)N1C(=O)CSC1=Nc1cc(-n2c(=O)cc(C(F)(F)F)n(C)c2=O)c(F)cc1Cl (stereo not shown) and print it.
6.0

* * *

System: ZEAMX (Corn, Field)
measurementProtocol: Postemergence herbicidal evaluation
Type: in vivo, Zea mays
details: Rate 0.0630 kg/ha
measureName: Postemergence herbicidal rating ZEAMX
Form field (numeric): enter value without unit.

Retrieve Postemergence herbicidal rating ZEAMX measured for CCOC(=O)CN1CCSC1=Nc1cc(-n2nc(C)n(C(F)F)c2=O)c(F)cc1Cl and print it.
7.5

Retrieve Postemergence herbicidal rating ZEAMX measured for CCOC(=O)CN1C(=O)C(CC(=O)OCc2ccccc2)OC1=Nc1cc(-n2c(=O)cc(C(F)(F)F)n(C)c2=O)c(F)cc1Cl (stereo not drawn) and print it.
8.5

Retrieve Postemergence herbicidal rating ZEAMX measured for Cn1c(C(F)(F)F)cc(=O)n(-c2cc(N=C3SCC(=O)N3CCC(=O)O)c(Cl)cc2F)c1=O and print it.
6.0

Retrieve Postemergence herbicidal rating ZEAMX measured for CCOC(=O)CN1C(=O)C(CC(=O)OC(C)C)SC1=Nc1cc(-n2c(=O)cc(C(F)(F)F)n(C)c2=O)c(F)cc1Cl (stereo not drawn) and print it.
5.5

Retrieve Postemergence herbicidal rating ZEAMX measured for C=CCN1C(=O)C(CC(=O)O)SC1=Nc1cc(-n2c(=O)cc(C(F)(F)F)n(C)c2=O)c(F)cc1Cl (stereo not drawn) and print it.
8.0

Retrieve Postemergence herbicidal rating ZEAMX measured for CCOP(=O)(CN1C(=O)CSC1=Nc1cc(-n2c(=O)cc(C(F)(F)F)n(C)c2=O)c(F)cc1Cl)OCC and print it.
4.5

* * *

System: SAGPY (Arrowhead (Pygmaea))
measurementProtocol: Preemergence weed control under flooded paddy conditions
Type: in vivo, Sagittaria pygmaea
details: 0.2500 kg/ha, rated 3-4 weeks after treatment
measureName: SAGPY herbicidal effect rating
Form field (numeric): enter value without unit.

Retrieve SAGPY herbicidal effect rating measured for Cn1c(C(F)(F)F)cc(=O)n(-c2cc(N=C3SCC(=O)N3CC(=O)OCC#N)c(Cl)cc2F)c1=O [Compound 109] and print it.
9.0

Retrieve SAGPY herbicidal effect rating measured for CCS(=O)(=O)NC(=O)CC1SC(=Nc2cc(-n3c(=O)cc(C(F)(F)F)n(C)c3=O)c(F)cc2Cl)N(C)C1=O (centres unmarked) [Compound 105] and print it.
7.0

Retrieve SAGPY herbicidal effect rating measured for COC(=O)[C@H](Cc1ccc([N+](=O)[O-])cc1)N1C(=O)CSC1=Nc1cc(-n2c(=O)cc(C(F)(F)F)n(C)c2=O)c(F)cc1Cl [Compound 78] and print it.
4.0

Retrieve SAGPY herbicidal effect rating measured for C=CCN1C(=O)C(CC(N)=O)SC1=Nc1cc(-n2c(=O)cc(C(F)(F)F)n(C)c2=O)c(F)cc1Cl (centres unmarked) [Compound 99] and print it.
4.0

Retrieve SAGPY herbicidal effect rating measured for Cn1c(C(F)(F)F)cc(=O)n(-c2cc(N=C3SCC(=O)N3C3CCOC3=O)c(Cl)cc2F)c1=O (centres unmarked) [Compound 73] and print it.
4.0

Retrieve SAGPY herbicidal effect rating measured for COC(=O)C1(N2C(=O)CSC2=Nc2cc(-n3c(=O)cc(C(F)(F)F)n(C)c3=O)c(F)cc2Cl)CCCCC1 [Compound 81] and print it.
0.0

Retrieve SAGPY herbicidal effect rating measured for COC(=O)CC1SC(=Nc2cc(-n3c(=O)cc(C(F)(F)F)n(C)c3=O)c(F)cc2Cl)N(C)C1=O (centres unmarked) [Compound 88] and print it.
9.0

Retrieve SAGPY herbicidal effect rating measured for COCCOC(=O)CN1C(=O)CSC1=Nc1cc(-n2c(=O)cc(C(F)(F)F)n(C)c2=O)c(F)cc1Cl [Compound 107] and print it.
3.0

Retrieve SAGPY herbicidal effect rating measured for C=CCN1C(=O)C(CC(=O)O)SC1=Nc1cc(-n2c(=O)cc(C(F)(F)F)n(C)c2=O)c(F)cc1Cl (centres unmarked) [Compound 62] and print it.
6.0

Retrieve SAGPY herbicidal effect rating measured for CCOC(=O)CN1C(=O)C(Cc2ccccc2OC(C)C(=O)O)S/C1=N/c1cc(-n2c(=O)cc(C(F)(F)F)n(C)c2=O)c(F)cc1Cl (centres unmarked) [Compound 114] and print it.
4.5

Retrieve SAGPY herbicidal effect rating measured for CCCCOC(=O)CN1C(=O)CSC1=Nc1cc(-n2c(=O)cc(C(F)(F)F)n(C)c2=O)c(F)cc1Cl [Compound 111] and print it.
6.0
